Target: UniProt:P35916
Sequence (P35916 whole entry): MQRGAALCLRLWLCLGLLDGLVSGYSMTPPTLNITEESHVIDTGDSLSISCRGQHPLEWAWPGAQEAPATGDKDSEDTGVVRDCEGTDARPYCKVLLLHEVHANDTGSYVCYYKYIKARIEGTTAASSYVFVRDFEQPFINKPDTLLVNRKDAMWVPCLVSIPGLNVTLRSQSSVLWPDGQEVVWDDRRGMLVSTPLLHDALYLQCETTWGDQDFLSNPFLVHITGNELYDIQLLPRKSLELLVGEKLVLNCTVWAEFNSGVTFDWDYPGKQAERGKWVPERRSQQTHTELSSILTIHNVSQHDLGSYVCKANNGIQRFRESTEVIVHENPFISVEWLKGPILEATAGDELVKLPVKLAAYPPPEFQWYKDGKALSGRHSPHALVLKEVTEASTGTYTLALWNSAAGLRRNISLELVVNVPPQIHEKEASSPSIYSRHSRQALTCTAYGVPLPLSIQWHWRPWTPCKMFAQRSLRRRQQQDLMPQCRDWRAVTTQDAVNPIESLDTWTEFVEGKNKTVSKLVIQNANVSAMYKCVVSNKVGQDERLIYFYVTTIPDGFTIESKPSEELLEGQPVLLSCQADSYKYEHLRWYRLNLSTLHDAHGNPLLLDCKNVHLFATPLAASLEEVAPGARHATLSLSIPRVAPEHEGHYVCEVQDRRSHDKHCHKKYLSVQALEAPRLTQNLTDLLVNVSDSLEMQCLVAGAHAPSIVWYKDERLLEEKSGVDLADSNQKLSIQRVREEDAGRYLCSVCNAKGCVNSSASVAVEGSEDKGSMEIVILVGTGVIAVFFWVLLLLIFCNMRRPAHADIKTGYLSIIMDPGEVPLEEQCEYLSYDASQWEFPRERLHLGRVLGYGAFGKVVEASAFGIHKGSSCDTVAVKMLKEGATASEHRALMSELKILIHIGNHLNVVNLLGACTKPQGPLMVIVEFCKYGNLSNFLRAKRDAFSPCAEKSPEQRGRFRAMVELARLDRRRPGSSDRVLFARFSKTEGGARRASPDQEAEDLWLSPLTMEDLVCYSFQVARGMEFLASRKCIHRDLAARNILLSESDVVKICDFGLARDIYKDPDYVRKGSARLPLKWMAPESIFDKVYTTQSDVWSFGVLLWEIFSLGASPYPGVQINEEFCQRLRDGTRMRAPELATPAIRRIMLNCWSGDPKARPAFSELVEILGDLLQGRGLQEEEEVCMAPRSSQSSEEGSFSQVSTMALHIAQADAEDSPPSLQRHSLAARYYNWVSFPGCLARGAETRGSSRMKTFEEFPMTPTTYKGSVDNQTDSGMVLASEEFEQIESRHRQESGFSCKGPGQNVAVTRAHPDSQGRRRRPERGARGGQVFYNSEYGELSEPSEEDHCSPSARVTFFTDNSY

{"sample smiles": "COC(=O)c1ccc2c(c1)NC(=O)/C2=C(\\Nc1ccc(CN2CCCCC2)cc1)c1ccccc1", "assay target": "UniProt:P35916", "IC50, µM": 0.032}

====

Target: Cyclin-dependent kinase 4 (Homo sapiens)
Sequence (P11802 whole entry): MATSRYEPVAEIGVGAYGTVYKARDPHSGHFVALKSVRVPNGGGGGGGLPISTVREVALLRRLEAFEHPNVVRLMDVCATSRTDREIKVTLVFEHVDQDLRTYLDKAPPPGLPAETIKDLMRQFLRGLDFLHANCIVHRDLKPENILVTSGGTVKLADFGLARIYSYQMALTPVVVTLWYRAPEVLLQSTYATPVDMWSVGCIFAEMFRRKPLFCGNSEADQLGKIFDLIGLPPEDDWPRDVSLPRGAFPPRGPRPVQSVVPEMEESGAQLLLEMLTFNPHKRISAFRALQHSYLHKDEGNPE

{"sample smiles": "COC(=O)c1ccc2c(c1)NC(=O)/C2=C(\\Nc1ccc(CN(C)C(=O)N(C)C)cc1)c1ccccc1", "IC50": "> 10 µM"}

====

Experiment: Cmax in NMRI nu/nu mouse at 50 mg/kg, po administered as single dose
Assay type: ADME, organism-based
Set-up: dose 50 mg/kg, route oral
Conditions: in vivo
Here, each record is paired with measured Cmax data.
assay metric: Cmax

{"sample smiles": "COC(=O)c1ccc2c(c1)NC(=O)/C2=C(\\Nc1ccc(CN2CCCCC2)cc1)c1ccccc1", "observed value": "952 ng/mL"}
{"sample smiles": "COC(=O)c1ccc2c(c1)NC(=O)/C2=C(\\Nc1ccc(N(C)C(=O)CN2CCN(C)CC2)cc1)c1ccccc1", "observed value": "1090 nM"}
